- protocol.notes: Genotoxicity in Salmonella typhimurium TA1535 harboring pSK1002 assessed as umu gene induction at 0.063 mg/ml in absence of Sprague-Dawley rat liver S9 fraction after by SOS/umu assay relative to control
- Type: toxicity, organism-based
- experimental.context: salmonella enterica subsp. enterica serovar typhimurium, read-out: FC
# fold induction at 0.063 mg/ml per entry

molecule | fold induction at 0.063 mg/ml
OC(CCN1CC=C(c2ccc(F)cc2)CC1)c1ccc2c(c1)OCO2 (stereo not drawn) | 0.9
Oc1ccc(C(O)CCN2CC=C(c3ccc(F)cc3)CC2)cc1 (stereo not drawn) | 0.5
OC(CCN1CCN(C(c2ccccc2)c2ccccc2)CC1)c1ccc(F)c2ccccc12 (stereo not drawn) | 0.8
COc1ccccc1C1=CCN(CCC(O)c2ccc(F)cc2)CC1 (stereo not drawn) | 0.9
Nc1ccc(N2CCC(NCCC(O)c3ccc(F)c4ccccc34)CC2)c(C(F)(F)F)c1 (stereo not drawn) | 0.6
OC(CCN1CCN(c2ccccc2C(F)(F)F)CC1)c1ccc(F)cc1 (stereo not drawn) | 1.3
O=[N+]([O-])c1ccc(N2CCN(CCC(O)c3ccc(F)c4ccccc34)CC2)cc1 (stereo not drawn) | 0.7
N#Cc1ccc(C(O)CCN2CC=C(c3ccc(F)cc3)CC2)cc1 (stereo not drawn) | 1.2
